Give DR/DR AA for every item shown.
experiment: Probe fluorescence ratio response to arachidonic acid relative to ADIFAB2; type: binding; settings: arachidonic acid; response relative to ADIFAB2
Please give the numeric answer without any surrounding text.

Challenge: Quick one: DR/DR AA for 72H 73Y 74G (protein, listed as Rattus norvegicus, PEPTIDE (1)...(131) wild-type rat intestinal fatty acid binding protein) AFDGTWKVDRNENYEKFMEKMGINVVKRKLGAHDNLKLTITQEGNKFTVKESSNFRNIDVVFELGVDFAYSHYGGTELTGTWTMEGNKLVGKFKRVDNGKELIAVREISGNELIQTYTYEGVEAKRIFKKE ?
Response given: 0.600

Challenge: Quick one: DR/DR AA for 38F1, 72A (protein, listed as Rattus norvegicus, PEPTIDE (1)...(131) wild-type rat intestinal fatty acid binding protein) AFDGTWKVDRNENYEKFMEKMGINVVKRKLGAHDNLKFTITQEGNKFTVKESSNFRNIDVVFELGVDFAYSAADGTELTGTWTMEGNKLVGKFKRVDNGKELIAVREISGNELIQTYTYEGVEAKRIFKKE ?
Response given: 0.91

Challenge: Quick one: DR/DR AA for 72A 74N (protein, listed as Rattus norvegicus, PEPTIDE (1)...(131) wild-type rat intestinal fatty acid binding protein) AFDGTWKVDRNENYEKFMEKMGINVVKRKLGAHDNLKLTITQEGNKFTVKESSNFRNIDVVFELGVDFAYSAANGTELTGTWTMEGNKLVGKFKRVDNGKELIAVREISGNELIQTYTYEGVEAKRIFKKE ?
Response given: 1.614

Challenge: Quick one: DR/DR AA for 18I 31V 73G 72A (protein, listed as Rattus norvegicus, PEPTIDE (1)...(131) wild-type rat intestinal fatty acid binding protein) AFDGTWKVDRNENYEKFIEKMGINVVKRKLVAHDNLKLTITQEGNKFTVKESSNFRNIDVVFELGVDFAYSAGDGTELTGTWTMEGNKLVGKFKRVDNGKELIAVREISGNELIQTYTYEGVEAKRIFKKE ?
Response given: 1.348

meta.source: patent US20060257938A1
